# targetUnderTest: Estrogen receptor (Homo sapiens) (UniProt P03372)
# Sequence (P03372 whole entry, looked up): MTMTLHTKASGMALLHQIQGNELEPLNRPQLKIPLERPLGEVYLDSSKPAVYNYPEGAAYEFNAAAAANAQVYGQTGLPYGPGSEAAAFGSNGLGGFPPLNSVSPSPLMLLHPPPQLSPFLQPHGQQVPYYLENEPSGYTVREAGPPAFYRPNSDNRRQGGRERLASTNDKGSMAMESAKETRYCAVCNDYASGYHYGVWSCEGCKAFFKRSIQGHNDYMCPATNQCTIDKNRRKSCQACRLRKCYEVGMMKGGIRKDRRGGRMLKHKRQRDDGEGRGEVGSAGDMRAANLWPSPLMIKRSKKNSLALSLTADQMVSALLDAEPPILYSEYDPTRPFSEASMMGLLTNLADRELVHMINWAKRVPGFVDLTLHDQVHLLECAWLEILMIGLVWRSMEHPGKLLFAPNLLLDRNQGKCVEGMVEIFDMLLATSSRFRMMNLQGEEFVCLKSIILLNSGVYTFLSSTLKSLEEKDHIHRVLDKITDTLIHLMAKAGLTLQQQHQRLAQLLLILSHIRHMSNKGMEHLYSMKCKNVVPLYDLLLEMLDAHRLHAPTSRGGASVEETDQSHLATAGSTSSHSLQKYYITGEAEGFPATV
# measurementProtocol: ATG_hERa_EcoTox2: Attagene TRANS-FACTORIAL EcoTox-2 HepG2 Assay for human Estrogen Receptor (ER)
Results filed as inconclusive are left out. Activity calls are given as the source filed them. How the source made its calls: active means hit-call score of the fitted dose curve at least 0.9, where 1 is the maximum; inconclusive means response in the unintended direction; inactive means score below 0.9.
A correct response names exactly one class from YES for active, NO for inactive

compound | targetUnderTest | labelValue
CC(C)(Oc1ccc(C2CC2(Cl)Cl)cc1)C(=O)O (configuration not stated) | Estrogen receptor (Homo sapiens) (UniProt P03372) | NO

Task: Give the logged outcome of this assay for the following compound: CN(CCOc1ccc(CC2SC(=O)NC2=O)cc1)c1ccccn1 (configuration not stated)
Result: NO

Task: What is the recorded call for this compound in the test? `CC(C)OC(=O)C(C)(C)Oc1ccc(C(=O)c2ccc(Cl)cc2)cc1`
Result: NO

Task: Status in this test for `C=C(c1ccc(C(=O)O)cc1)c1cc2c(cc1C)C(C)(C)CCC2(C)C` ?
Result: NO

Task: Called result for `CC(C)(Oc1ccc(CCNC(=O)c2ccc(Cl)cc2)cc1)C(=O)O`
Result: YES

Task: Outcome? Cc1c(C)c2c(c(C)c1O)CCC(C)(COc1ccc(CC3SC(=O)NC3=O)cc1)O2 (configuration not stated)
Result: NO

Task: # fetch the recorded call for `Cc1cccc(Nc2cc(Cl)nc(SCC(=O)O)n2)c1C` here
Result: NO
